# credit: patent US20130281399A1

ENDPOINT: melting point

> print(dat)
                                    molecule       endpoint             result
 1  COc1cc(OC)c2c(=O)[nH]c(-c3ccc(Cc4nnn[nH]4)cc3)nc2c1 [Example 96]  melting point      295 to 296 °C
 2  COc1cc(OC)c2c(=O)[nH]c(-c3cc(C)c(OCCN4CC(NC(C)=O)C4)c(C)c3)nc2c1 [Example 87]  melting point  111.8 to 113.6 °C
 3  COCCOc1cc(OCCN2CCCC2)c2c(=O)[nH]c(-c3cc(C)nc(C)c3)nc2c1 [Example 111]  melting point    60.4 to 62.3 °C
 4  COc1cc(OC)c2c(=O)[nH]c(-c3cc(C)c(CCCN4CCCC4)c(C)c3)nc2c1 [Example 77]  melting point      194 to 196 °C
 5  COc1cc(OC)c2c(=O)[nH]c(-c3cc(C)c(OCCN4CCN(C)CC4)c(C)c3)nc2c1 [Example 71]  melting point      180 to 182 °C
 6  COc1cc(OC)c2c(=O)[nH]c(-c3cc(C)c(OCCN4CCN(C(C)=O)CC4)c(C)c3)nc2c1 [Example 68]  melting point      213 to 214 °C
 7  COc1cc(OC)c2c(=O)[nH]c(-c3cc(C)cc(OCCO)c3)nc2c1 [Example 113]  melting point  106.9 to 109.1 °C
 8  COc1cc(OC)c2c(=O)[nH]c(-c3ccc(OCCN4CCCC4)c(C)c3)nc2c1 [Example 73]  melting point      230 to 231 °C
 9  Cc1cc(-c2nc3cc(OC(C)C)cc(OC(C)C)c3c(=O)[nH]2)cc(C)c1OCCN1CCCC1 [Example 88]  melting point        65 to 68 °C
10  COc1cc(OCCOCc2ccccc2)cc2nc(-c3ccncc3)[nH]c(=O)c12 [Example 98]  melting point  228.2 to 229.9 °C
11  COc1cc(OCCOC(C)C)cc2nc(-c3cc(C)nc(C)c3)[nH]c(=O)c12 [Example 107]  melting point      188 to 189 °C
12  COc1cc(OCCOc2ccccc2)c2c(=O)[nH]c(-c3cc(C)nc(C)c3)nc2c1 [Example 104]  melting point  172.3 to 173.2 °C
13  COCCOc1cc(OC)c2c(=O)[nH]c(-c3ccnc(C)c3)nc2c1 [Example 110]  melting point      260 to 262 °C
14  COc1cc(OCCOc2ccccc2)cc2nc(-c3cc(C)nc(C)c3)[nH]c(=O)c12 [Example 103]  melting point      223 to 224 °C
15  COc1cc(OC)c2c(=O)[nH]c(-c3cc(C)c(OCCN4C(=O)CN(C(C)C)C4=O)c(C)c3)nc2c1 [Example 74]  melting point      219 to 221 °C
16  COc1cc(OCCN2CCCC2)c2c(=O)[nH]c(-c3cc(C)nc(C)c3)nc2c1 [Example 102]  melting point      190 to 191 °C
17  COc1cc(OCCOCc2ccccc2)cc2nc(-c3cc(C)nc(C)c3)[nH]c(=O)c12 [Example 109]  melting point      178 to 180 °C
18  COc1cc(OC)c2c(=O)[nH]c(-c3cc(C)c(OCCN4CCCC4)c(C)c3)nc2n1  melting point      228 to 230 °C
19  COc1cc(OC)c2c(=O)[nH]c(-c3cc(C)c(OCCN4C(=O)NC(c5ccccc5)C4=O)c(C)c3)nc2c1 (centres unmarked) [Example 79]  melting point  219.6 to 221.4 °C
20  COc1cc(OC)c2c(=O)[nH]c(-c3cccc(OCCO)c3)nc2c1 [Example 112]  melting point    244.8 to 246 °C
21  Cc1cc(-c2nc3cccc(Cl)c3c(=O)[nH]2)cc(C)c1OCCN1CCCC1 [Example 83]  melting point      179 to 180 °C
22  Cc1cc(C)c2c(=O)[nH]c(-c3cc(C)c(OCCN4CCCC4)c(C)c3)nc2c1 [Example 89]  melting point      181 to 182 °C
23  COc1cc(OC)c2c(=O)[nH]c(-c3cc(C)c(OCCn4ccnc4)c(C)c3)nc2c1 [Example 69]  melting point      218 to 219 °C
24  COc1cc(OC)c2c(=O)[nH]c(-c3cc(C)c(OCCN4CCCCCC4)c(C)c3)nc2c1 [Example 84]  melting point      198 to 199 °C
25  COc1cccc2nc(-c3cc(C)c(OCCN4CCCC4)c(C)c3)[nH]c(=O)c12 [Example 66]  melting point      157 to 158 °C
26  COc1cc(OC)c2c(=O)[nH]c(-c3cc(C)c(OCCN4CCC4)c(C)c3)nc2c1 [Example 86]  melting point      204 to 205 °C
27  COCCOc1cc(OC)c2c(=O)[nH]c(-c3cc(C)nc(C)c3)nc2c1 [Example 100]  melting point  228.8 to 230.4 °C
28  COc1cc(OCCN2CCCC2)cc(-c2nc3cc(OC)cc(OC)c3c(=O)[nH]2)c1 [Example 114]  melting point      159 to 160 °C
29  COc1cc(OC)c2c(=O)[nH]c(-c3cc(C)nc(C)c3)nc2c1 [Example 99]  melting point      291 to 292 °C
30  COc1cc(OC)c2c(=O)[nH]c(-c3ccc(OCCN4CCCC4)cc3)nc2c1 [Example 76]  melting point      226 to 227 °C
31  COc1cc(OC)c2c(=O)[nH]c(-c3ccc(N4CCC(O)CC4)cc3)nc2n1 [Example 8]  melting point      284 to 286 °C
32  COc1ccc2c(=O)[nH]c(-c3cc(C)c(OCCN4CCCC4)c(C)c3)nc2c1 [Example 70]  melting point      218 to 220 °C
